Source: patent US5089529A

Measured ED50, listed per entry for reference.
Test system: Arrhythmia in Mice Caused by Aconitine
method_description: Action against arrhythmia in mice caused by aconitine
Type: in vivo, ddY-Male mice
study_conditions: Mus musculus, ip, read-out: ED50, i.p.

Examples from the recorded data:
- CC(C)CN(CCCC(O)(c1ccccc1)c1ccccc1)CC(C)C: 14.9 mg/kg
- CC(C)CNCCCC(O)(c1ccccc1)c1ccccc1: 11.5 mg/kg
- CCN(CC)CC(=O)Nc1c(C)cccc1C [Lidocaine, reference compound]: 35.4 mg/kg

Could you now look at the following compound, please?
Note ED50 for the compound shown: CC(C)N(CCC(C(N)=O)(c1ccccc1)c1ccccn1)C(C)C (stereo not shown) [Disopyramide, reference compound]
12.5 mg/kg
